Parameter Tm: see the listing below.
B1: Subtilisin-chymotrypsin inhibitor-2A, P01053 (parent)
chain: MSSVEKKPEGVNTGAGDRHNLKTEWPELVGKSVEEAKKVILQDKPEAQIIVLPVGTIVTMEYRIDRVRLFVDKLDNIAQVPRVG

- Variants of: B1
- test-context: Hordeum vulgare; pH 3; Thermal; DSC; MES 450 mM; reversible: yes; structure 2CI2; whole UniProt chain shown

{"columns": ["residue-codes", "Tm (°C)"],
 "data": [
  ["MSSVEKKPEGVNTGAGDRHNLKTEWPELVGKSVEEAKKVILQDKPEAQIIVLPVGTIVTMEYRIDRVRLFADKLDNIAQVPRVG", 51.3],
  ["MSSVEKKPEGVNTGAGDRHNLKTEWPELVGKSVEEAKKVILQDKPEAQIIVLPVGTIVTMEYRIDRVRLFVDKLDNVAQVPRVG", 65.4],
  ["MSSVEKKPEGVNTGAGDRHNLKTEWPEAVGKSVEEAKKVILQDKPEAQIIVLPVGTIVTMEYRIDRVRLFVDKLDNIAQVPRVG", 48.5],
  ["MSSVEKKPEGVNTGAGDRHNLKTEWPELVGKSVEEAKKVVLQDKPEAQIIVLPVGTIVTMEYRIDRVRLFVDKLDNIAQVPRVG", 57.7],
  ["MSSVEKKPEGVNTGAGDRHNLKTEWPELVGKSVEEAKKAILQDKPEAQIIVLPVGTIVTMEYRIDRVRLFVDKLDNIAQVPRVG", 61.1],
  ["MSSVEKKPEGVNTGAGDRHNLKTEWPELVGKSVEEAKKVILQDKPEAQIIVLPVGTIVTMEYRIDRVRLFVDKLDNAAQVPRVG", 38.3]
]}
